- System: Salmonella enterica serovar Typhimurium LT2
- method.notes: microbe, parasite or virus in culture
- Type: cell-based
- reported.conditions: LT2
Where no end group is shown, it is not given here.
The entries below are paired with their reported MIC S. Typhimurium LT2.
measured.quantity: MIC S. Typhimurium LT2 (µg/mL)

residues	experimental.system	readout.number
GLRKRLRKFRNKIKEKLKKIGQKNQGLLPKLAPRTDY [Peptide 28]	Salmonella enterica serovar Typhimurium LT2	32
GLRKRLRKFRNKIKEILKKIGQKIQGLLPKLAPRTDY [Peptide 12]	Salmonella enterica serovar Typhimurium LT2	16
GLRKRLRKFRNKSKEKLKKIGQKIQGLLPKLAPRTDY [Peptide 8]	Salmonella enterica serovar Typhimurium LT2	8
GLRKRLRKFRNKIKEKKKKIGQKIQGLLPKLAPRTDY [Peptide 17]	Salmonella enterica serovar Typhimurium LT2	16
